These measurements were taken from patent US7727960B2.

# ASSAY SYSTEM: human C5aR (CD88) (human, UniProt P21730 1-350)
# Sequence (looked up): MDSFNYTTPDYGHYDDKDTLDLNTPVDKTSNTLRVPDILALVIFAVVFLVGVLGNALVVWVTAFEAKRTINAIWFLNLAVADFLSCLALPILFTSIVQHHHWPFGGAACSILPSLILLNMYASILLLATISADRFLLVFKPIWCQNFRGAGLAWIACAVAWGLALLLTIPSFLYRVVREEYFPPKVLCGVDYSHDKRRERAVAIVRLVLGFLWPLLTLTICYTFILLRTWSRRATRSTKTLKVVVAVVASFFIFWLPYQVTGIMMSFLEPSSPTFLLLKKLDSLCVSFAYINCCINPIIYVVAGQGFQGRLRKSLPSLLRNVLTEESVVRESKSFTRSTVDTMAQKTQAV
# ASSAY NOTES: cell-based or functional assay
REPORTED METRIC: IC50 activity group, enzyme release assay

Observe how each entry below is paired with its result.
Ac-Ala-Phe-Orn-Aze-cha-Bta-Phe-NH2 (peptide) = < 50 nM
Ac-Phe-Orn-Pro-cha-1Ni-Phe-NH2 (peptide) = < 200 nM
Ac-Phe-Orn-Pro-hle-Pff-2Ni-NH2 (peptide) = < 200 nM
Ac-Phe-Orn-Pro-cha-Otf-Phe-NH2 (peptide) = < 200 nM
Ac-Thi-Orn-Pro-cha-Trp-Phe-NH2 (peptide) = < 200 nM
Ac-Phe-Orn-Pro-hle-Bta-1Ni-NH2 (peptide) = < 200 nM
Ac-Phe-Orn-Pro-hle-6FW-Phe-NH2 (peptide) = < 200 nM
Ac-Phe-Nle-Pro-cha-Bta-Phe-NH2 (peptide) = < 200 nM
Ac-Mmy-Orn-Pro-hle-Pff-Phe-NH2 (peptide) = < 200 nM
H2N-CO-Phe-Orn-Pro-cha-Bta-Phe-NH2 (peptide) = < 50 nM

Turning now to a further record.
Req: Form field: IC50 activity group, enzyme release assay recorded for Ac-Phe-Orn-Pip-cha-Trp-Phe-OH (peptide) with human C5aR (CD88) (human, UniProt P21730 1-350) (enter value)
Resp: < 2000 nM
